From: the supplement of paper PMC9694430

# System: LOC_OS01G60330-cb001
# RUN_DESCRIPTION: thermal shift delta Tm vs DMSO control; higher = stronger stabilization (binding);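 note: purified Escherichia coli-expressed rice kinase domain construct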
# COND: 12.5 µM; protein concentration 2 µM
Recorded thermal shift delta Tm values for a group of molecules are listed next.
RESULT_TYPE: thermal shift delta Tm

| MOLECULE | REPORTED_RESULT |
| --- | --- |
| O=c1nc(N2CCOCC2)oc2c(-c3cccc4c3sc3ccccc34)cccc12 | -0.13 °C |
| CCN1C(=O)CNc2ncc(-c3ccc(-c4nc[nH]n4)nc3C)nc21 | 0.57 °C |
| CN1CCN(c2ccc(Nc3cc(-c4cccc(-n5ccc6cc(C7CC7)cc(F)c6c5=O)c4CO)cn(C)c3=O)nc2)CC1 | 0.83 °C |
| Cc1c(CN2CCN(C(=O)[C@H](C)O)CC2)sc2c(N3CCOCC3)nc(-c3cnc(N)nc3)nc12 | 0.98 °C |
| CC1=C(C(=O)Nc2cc3cn[nH]c3cc2F)C(c2ccc(C(F)(F)F)cc2)CC(=O)N1 (centres undefined) | 0.48 °C |
| CN1CCN(c2ccc(-c3ccncc3-c3cc(F)c(O)c(F)c3)cc2)CC1 | 1.02 °C |
| Cc1cc([C@@H](C)Nc2ccccc2C(=O)O)c2nc(N3CCOCC3)cc(=O)n2c1 | 0.75 °C |
| O=c1cc(-c2cccc3c2Sc2ccccc2S3)oc(N2CCOCC2)c1 | 1.07 °C |
| CNC(=O)c1ccc(C)c(-n2c(C)cc(OCc3ccc(F)cc3F)c(Br)c2=O)c1 | 0.78 °C |
| Cc1c(NC(=O)c2ccc(C(C)(C)C)cc2)cccc1-c1cn(C)c(=O)c(Nc2ccc(C(=O)N3CCOCC3)cc2)n1 | 0.51 °C |
| N#Cc1c(NC(=O)c2cccc3ccccc23)sc2c1CCCC2 | 1.18 °C |
| C#Cc1cccc(Nc2ncnc3cc(OCCOC)c(OCCO)cc23)c1 | 0.3 °C |
| C[C@@H](N)[C@H]1CC[C@H](C(=O)Nc2ccncc2)CC1 | 1.12 °C |
| COc1cc2/c(=N/c3ccc(Br)cc3F)nc[nH]c2cc1OCC1CCN(C)CC1 [Vandetanib (ZD6474)] | 0.67 °C |
| C[C@@H]1COCCN1c1cc(C2([S@](C)(=N)=O)CC2)nc(-c2cc[nH]c3nccc2-3)n1 | 0.61 °C |
| COC1(c2sc3c(N4CCOCC4)nc(-c4cnc(N)nc4)nc3c2C)COC1 | 2.64 °C |
| O=C(NOC[C@H](O)CO)c1ccc(F)c(F)c1Nc1ccc(I)cc1F | 1.22 °C |
| COc1cc2c(Oc3ccc(NC(=O)C4(C(=O)Nc5ccc(F)cc5)CC4)cc3F)ccnc2cc1OCCCN1CCOCC1 | 1.45 °C |
| O=C1Cc2c([nH]c3ccc(Br)cc23)-c2ccccc2N1 | 2.91 °C |

* * *

# Tested on: LOC_OS03G50810-cb003
# RUN_DESCRIPTION: thermal shift delta Tm vs DMSO control; higher = stronger stabilization (binding)
# COND: 12.5 µM; protein concentration 2 µM
Counter-ions that a name gives are not always drawn.

| COMPOUND | thermal shift delta Tm (°C) |
| --- | --- |
| CSc1cccc(Nc2ncc3cc(-c4c(Cl)cccc4Cl)c(=O)n(C)c3n2)c1 | 0.58 |
| CC(C)(C)S(=O)(=O)c1ccc2nccc(Nc3n[nH]c4ccc(F)cc34)c2c1 | 0.11 |
| Cc1nc(Nc2cnn(C3CCNCC3)c2)nc2c1N(C)C(=O)c1cc3ccccc3cc1N2C | 0.96 |
| O=C(Nc1ccc(-c2ccnc(Nc3ccc(N4CCOCC4)cc3)n2)cc1)C1CCCN1 (centres undefined) | 0.83 |
| N#Cc1c(NC(=O)c2cccc3ccccc23)sc2c1CCCC2 [JNK Inhibitor IX] | 0.38 |
| Cn1c(=O)c(F)c(Nc2ccc(I)cc2F)c2c(=O)n(C[C@@H](O)CO)cnc21 | 0.78 |
| C=CC(=O)Nc1cc(Nc2nccc(-c3c[nH]c4ccccc34)n2)c(OC)cc1N(C)CCN(C)C | 1.28 |
| CC#CC(=O)N1CC[C@@H](n2c(=O)n(-c3ccc(Oc4ccccc4)cc3)c3c(N)ncnc32)C1 [ONO-4059 (GS-4059) hydrochloride] | 0.3 |
| C=CC(=O)Nc1cccc(Nc2nc(Nc3ccc(N4CCN(C(C)=O)CC4)cc3OC)ncc2C(F)(F)F)c1 [Rociletinib (CO-1686, AVL-301)] | 2.22 |
| CC(C)c1ccc2oc3nc(N)c(C(=O)O)cc3c(=O)c2c1 [Amlexanox] | 0.21 |
| O=C(O)c1ccc(Nc2ncc3c(n2)-c2ccc(Cl)cc2C(c2c(F)cccc2F)=NC3)cc1 | 0.12 |
| CCNc1nc(Nc2cc(F)c(C(=O)N3CCOCC3)cc2OC)ncc1C(F)(F)F | 0.82 |
| O=c1sn(-c2cccc3ccccc23)c(=O)n1Cc1ccccc1 [Tideglusib] | -0.5 |
| O=C(O[C@@H]1Cc2c(O)cc(O)cc2O[C@@H]1c1cc(O)c(O)c(O)c1)c1cc(O)c(O)c(O)c1 [(-)-Epigallocatechin Gallate] | -1.51 |
| Cc1nc(Nc2ncc(C(=O)Nc3c(C)cccc3Cl)s2)cc(N2CCN(CCO)CC2)n1 [Dasatinib] | 3.61 |
| OCCn1cc(-c2ccc3c(c2)CC/C3=N\O)c(-c2ccncc2)n1 | 0.5 |
| C=CC(=O)Nc1cccc(Oc2nc(Nc3ccc(N4CCN(C)CC4)cc3)nc3ccsc23)c1 | 1.96 |
| C=CC(=O)Nc1ccc2ncnc(Nc3ccc(OCc4cccc(F)c4)c(Cl)c3)c2c1 | 1.76 |
| CS(=O)(=O)N1CCc2c(-c3cnc(N)nc3)nc(N3CCOCC3)nc21 | 0.53 |
| Cc1ccccc1-n1c(Cn2nc(-c3cccc(O)c3)c3c(N)ncnc32)nc2cccc(C)c2c1=O | 0.27 |
| Oc1c(F)cc(-c2cnccc2-c2ccc(N3CCOCC3)cc2)cc1F | 0.2 |
| Cc1cc(Nc2cc(N3CCN(C)CC3)nc(Sc3ccc(NC(=O)C4CC4)cc3)n2)n[nH]1 [Tozasertib (VX-680, MK-0457)] | 4.7 |
| COc1cc2ncc(-c3ccccc3)nc2cc1OC [Tyrphostin AG 1296] | 1.56 |
| COc1cc2nccc(Oc3ccc(NC(=O)C4(C(=O)Nc5ccc(F)cc5)CC4)cc3)c2cc1OC | 0.76 |
| C[C@@H](Nc1cc(F)cc(F)c1)c1cc(C(=O)N(C)C)cc2c(=O)cc(N3CCOCC3)oc12 | 0.15 |
| CO[C@H]1C[C@@H]2CC[C@@H](C)[C@@](O)(O2)C(=O)C(=O)N2CCCC[C@H]2C(=O)O[C@H]([C@H](C)C[C@@H]2CC[C@@H](OP(C)(C)=O)[C@H](OC)C2)CC(=O)[C@H](C)/C=C(\C)[C@@H](O)[C@@H](OC)C(=O)[C@H](C)C[C@H](C)/C=C/C=C/C=C/1C [Ridaforolimus (Deforolimus, MK-8669)] | -0.15 |
| C=C(C)[C@@H]1CC[C@]2(C)CC[C@]3(C)[C@H](CC[C@@H]4[C@@]5(C)CC[C@H](O)C(C)(C)[C@@H]5CC[C@]43C)[C@@H]12 [Lupeol] | 0.4 |
| Nc1nc2cc(-c3ccc4ncc(C(=O)N5CCOCC5)n4c3)ccc2o1 [Serabelisib (INK-1117,MLN-1117,TAK-117)] | 0.42 |
| Cc1cc(Nc2cc(N)ncn2)c(=O)n2c1C(=O)NC21CCCCC1 | 0.4 |
| Cc1ccc(NC(=O)Nc2cc(C(F)(F)F)ccc2F)cc1Nc1ccc2c(c1)NC(=O)/C2=C\c1ccc[nH]1 | 1.99 |
| COc1ncc(-c2cc(-c3ncc(CN4C[C@@H](C)O[C@@H](C)C4)o3)c3cn[nH]c3c2)cc1NS(C)(=O)=O | 0.71 |
| O=C(NCc1cccc(O)c1)Nc1nc(-c2ccncc2)cs1 | 0.05 |
| OC(c1cc(-c2ccc(Cl)cc2)nc2ccccc12)C1CCCCN1 (centres undefined) [Vacquinol-1] | 0.65 |
| Cc1ccc(NC(=O)c2ccc(CN3CCN(C)CC3)cc2)cc1Nc1nccc(-c2cccnc2)n1 [Imatinib (STI571)] | 0.42 |

* * *

# Tested on: LOC_OS03G04050-cb001
# RUN_DESCRIPTION: thermal shift delta Tm vs DMSO control; higher = stronger stabilization (binding)
# COND: 12.5 µM; protein concentration 2 µM
Counter-ions that a name gives are not always drawn.
Kind request: treat 0.3 °C as inclusive, so thermal shift delta Tm at 0.3 °C or higher is 1.0, anything lower is 0.0.

| COMPOUND | LABEL_CLASS |
| --- | --- |
| COc1cc(F)c(F)c(Nc2ccc(I)cc2F)c1NS(=O)(=O)C1(C[C@H](O)CO)CC1 [Refametinib (RDEA119, Bay 86-9766)] | 1.0 |
| O=C(Nc1ccccc1C(=O)NC1CCCCNC1=O)c1cc2ccccc2s1 (stereo not given) | 0.0 |
| Cc1cc(Nc2nc(N[C@@H](C)c3ncc(F)cn3)ncc2Cl)[nH]n1 | 0.0 |
| O=C1NC(=O)/C(=C/c2cccc(C(F)(F)F)c2)S1 | 1.0 |
| O=C1c2c(O)cc(O)cc2OC(c2ccc(O)c(O)c2)C1O (stereo not given) [Taxifolin (Dihydroquercetin)] | 1.0 |
| CCCS(=O)(=O)Nc1ccc(F)c(C(=O)c2c[nH]c3ncc(Cl)cc23)c1F | 1.0 |
| CCCNC(=O)Nc1ccc(Oc2ncnc3cc(OC)c(OC)cc23)cc1Cl | 0.0 |
| CC(=O)c1c(C)c2cnc(Nc3ccc(N4CCNCC4)cn3)nc2n(C2CCCC2)c1=O | 0.0 |
| Cc1nc(Nc2cnn(C3CCNCC3)c2)nc2c1N(C)C(=O)c1cc3ccccc3cc1N2C | 0.0 |
| Cc1ccc(NC(=O)c2ccc(CN3CCN(C)CC3)cc2)cc1Nc1nccc(-c2cccnc2)n1 [Imatinib Mesylate (STI571)] | 0.0 |
| Cc1ccc2nc(NCCN)c3ncc(C)n3c2c1 | 1.0 |
| Cn1ncc(Cl)c1-c1cc(C(=O)N[C@H](CN)Cc2cccc(F)c2)sc1Cl | 1.0 |
| COc1ccc(S(=O)(=O)N(CCO)c2ccccc2CN(C)C/C=C/c2ccc(Cl)cc2)cc1 [KN-93 Phosphate] | 1.0 |
| Cc1nc2c(-c3cnc(N)nc3)nc(N3CCOCC3)nc2n1C(C)C | 1.0 |
| O=c1[nH]nc(Sc2ncc([N+](=O)[O-])s2)n1-c1ccc2c(c1)OCCO2 | 0.0 |
| COc1cc2nccc(Oc3ccc(NC(=O)C4(C(=O)Nc5ccc(F)cc5)CC4)cc3)c2cc1OC | 1.0 |
| NC(=O)c1cnc2[nH]ccc2c1N[C@@H]1[C@@H]2CC3C[C@H]1C[C@@](O)(C3)C2 | 0.0 |
| CCNC(=O)Nc1ccc(-c2nc(N3CCOC[C@@H]3C)c3c(n2)C(C)(C)S(=O)(=O)C3)cc1 | 1.0 |
| O=C(Nc1ccc(OC(F)(F)F)cc1)c1sccc1NCc1ccnc2ccccc12 | 1.0 |
| CN1CCN(C2CCN(C(=O)Nc3cc(Oc4ccc(NC(=O)C5(C(=O)Nc6ccc(F)cc6)CC5)c(F)c4)ccn3)CC2)CC1 [Golvatinib (E7050)] | 0.0 |
| COc1nccnc1NS(=O)(=O)c1ccc(NC(=O)/C=C/c2ccc([N+](=O)[O-])s2)cc1 [Necrosulfonamide] | 1.0 |
| CNC(=O)c1cc(Oc2ccc(NC(=O)Nc3ccc(Cl)c(C(F)(F)F)c3)cc2)ccn1 | 1.0 |
| Cc1cc(Nc2cc(N3CCN(C)CC3)nc(/C=C/c3ccccc3)n2)n[nH]1 | 0.0 |
| CNC(=O)CN1CCC(Oc2cc3c(Nc4cccc(Cl)c4F)ncnc3cc2OC)CC1 | 0.0 |
| CCN1CCN(Cc2ccc(Nc3ncc(F)c(-c4cc(F)c5nc(C)n(C(C)C)c5c4)n3)nc2)CC1 | 0.0 |
| COc1ccc(F)c(F)c1C(=O)c1cnc(NC2CCN(S(C)(=O)=O)CC2)nc1N | 0.0 |
| CC(C)c1cnn2c(NCc3ccccc3)cc(NCCCCCCN)nc12 | 1.0 |
| COC(=O)[C@]12CCC(C)(C)C[C@H]1[C@H]1C(=O)C=C3[C@@]4(C)C=C(C#N)C(=O)C(C)(C)[C@@H]4CC[C@@]3(C)[C@]1(C)CC2 | 0.0 |
| CC(C)n1nc(-c2ccc3oc(N)nc3c2)c2c(N)ncnc21 | 1.0 |
| COc1cc2nccc(Oc3ccc(NC(=O)NC4CC4)c(Cl)c3)c2cc1C(N)=O [Lenvatinib (E7080)] | 1.0 |
| Cc1[nH]c(/C=C2\C(=O)Nc3ccc(S(=O)(=O)N(C)c4cccc(Cl)c4)cc32)c(C)c1C(=O)N1CCN(C)CC1 | 1.0 |
| Cc1cccc(CC(=O)N2CCc3c2ccc(-c2cn(C)c4ncnc(N)c24)c3F)n1 | 1.0 |
| CNC(=O)c1cc(Oc2ccc3nc(N[C@@H]4CCCC[C@H]4O)sc3c2)ccn1 | 1.0 |
| COc1cc2c(cc1OC)[C@@H]1C(=O)c3ccc4c(c3O[C@@H]1CO2)C=CC(C)(C)O4 | 0.0 |
| Cc1cc(CN2CCN(c3c(Br)cnc4nc(-c5ccc(N6CCN(C)CC6)cc5)[nH]c34)CC2)no1 | 1.0 |
